Assay Overview: Cytotoxicity for monkey kidney fibroblasts
Type: cell-based
Condition Set: read-out: Cytotox. IC50
# CC50 annotations

>  <Molecule>
COc1cc([C@@H]2c3cc(O)c(O)cc3[C@@H](O)[C@H]3COC(=O)[C@H]23)cc(OC)c1OC [AP-39, 3,4-O-demethyleneepipodophyllotoxin]

>  <Unit Of Measurement>
µg/mL

>  <Qualifier>
>

>  <CC50>
10

$$$$
>  <Molecule>
COC(=O)C1Oc2cc3c(cc2O1)[C@@H](c1cc(OC)c(OC)c(OC)c1)[C@@H]1C(=O)OC[C@@H]1C3 (some centres unmarked) [AP-47, 10-methoxycarbonyldeoxypicropodophyllin]

>  <Unit Of Measurement>
µg/mL

>  <Qualifier>
=

>  <CC50>
2.5

$$$$
>  <Molecule>
COc1cc([C@@H]2c3cc(O)c(O)cc3[C@H](O)[C@H]3COC(=O)[C@H]23)cc(OC)c1OC [AP-40, 3,4-O-demethylenepodophyllotoxin]

>  <Unit Of Measurement>
µg/mL

>  <Qualifier>
=

>  <CC50>
0.5

$$$$
>  <Molecule>
COC(=O)C1C2CN(c3ccccc3)N=C2c2cc3c(cc2C1c1cc(OC)c(OC)c(OC)c1)OCO3 (centres unmarked) [LL-4, methyl phenylpyrazopodophyllate]

>  <Unit Of Measurement>
µg/mL

>  <Qualifier>
=

>  <CC50>
1

$$$$
>  <Molecule>
COc1cc([C@@H]2c3cc(O)c(O)cc3C[C@H]3COC(=O)[C@H]32)cc(OC)c1OC [AP-37, 3,4-O-demethylenedeoxypicropodophyllin]

>  <Unit Of Measurement>
µg/mL

>  <Qualifier>
>

>  <CC50>
20

$$$$

meta.source: patent US5739114A
